Measured kinase still bound, per cent of control of individual entries
Molecular target: TGFBR2 (human) (UniProt P37173)
Sequence (P37173 whole entry, looked up): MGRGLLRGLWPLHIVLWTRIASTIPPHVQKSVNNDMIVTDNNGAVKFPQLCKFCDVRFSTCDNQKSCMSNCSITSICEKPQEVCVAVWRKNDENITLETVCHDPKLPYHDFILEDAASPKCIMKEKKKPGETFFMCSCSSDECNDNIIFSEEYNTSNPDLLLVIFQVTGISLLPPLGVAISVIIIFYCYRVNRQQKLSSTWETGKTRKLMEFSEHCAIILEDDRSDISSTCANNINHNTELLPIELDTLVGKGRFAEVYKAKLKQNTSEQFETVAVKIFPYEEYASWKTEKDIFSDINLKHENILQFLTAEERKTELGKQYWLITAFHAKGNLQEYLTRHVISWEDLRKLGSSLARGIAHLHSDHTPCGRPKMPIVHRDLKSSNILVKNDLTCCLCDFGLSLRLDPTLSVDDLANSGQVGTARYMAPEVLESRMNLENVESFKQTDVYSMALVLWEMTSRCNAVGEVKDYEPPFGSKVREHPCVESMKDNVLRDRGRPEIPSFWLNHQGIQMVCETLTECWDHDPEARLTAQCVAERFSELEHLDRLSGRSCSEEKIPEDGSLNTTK
Assay: KINOMEscan competition binding
Details: compound 1.0 µM
Use % as the unit, but write only the number.

Lookup: Which kinase still bound, per cent of control is reported for this molecule? "CN(C)C/C=C/C(=O)Nc1cccc(C(=O)Nc2ccc(Nc3nccc(/C(C#N)=C4\Nc5ccccc5S4)n3)cc2)c1"
Found: 100

Lookup: Which kinase still bound, per cent of control is reported for this molecule? "Cc1cc(NC(=O)c2cccc(NC(=O)/C=C/CN(C)C)c2)ccc1Nc1nccc(-c2cccnc2)n1"
Found: 64

Lookup: Which kinase still bound, per cent of control is reported for this molecule? "CN(C)C/C=C/C(=O)Nc1cccc(C(=O)Nc2ccc(Nc3nccc(-c4c(-c5ccccc5)nn5ccccc45)n3)cc2)c1"
Found: 10

Lookup: Which kinase still bound, per cent of control is reported for this molecule? "CN(C)C/C=C/C(=O)Nc1cccc(C(=O)Nc2ccc(Nc3nccc(-c4cccnc4)n3)cc2)c1"
Found: 76

---

Molecular target: CSNK2A1 (human)
Test readout: IC50 (nM)
Use nM as the unit, but write only the number.

Lookup: // fetch CSNK2A1 (human) IC50 for "CN(C)C/C=C/C(=O)Nc1cccc(C(=O)Nc2ccc(Nc3nccc(-c4cccnc4)n3)cc2)c1"
Found: 506

---

Target: IRAK1 (human) (UniProt P51617)
Sequence (P51617 whole entry, looked up): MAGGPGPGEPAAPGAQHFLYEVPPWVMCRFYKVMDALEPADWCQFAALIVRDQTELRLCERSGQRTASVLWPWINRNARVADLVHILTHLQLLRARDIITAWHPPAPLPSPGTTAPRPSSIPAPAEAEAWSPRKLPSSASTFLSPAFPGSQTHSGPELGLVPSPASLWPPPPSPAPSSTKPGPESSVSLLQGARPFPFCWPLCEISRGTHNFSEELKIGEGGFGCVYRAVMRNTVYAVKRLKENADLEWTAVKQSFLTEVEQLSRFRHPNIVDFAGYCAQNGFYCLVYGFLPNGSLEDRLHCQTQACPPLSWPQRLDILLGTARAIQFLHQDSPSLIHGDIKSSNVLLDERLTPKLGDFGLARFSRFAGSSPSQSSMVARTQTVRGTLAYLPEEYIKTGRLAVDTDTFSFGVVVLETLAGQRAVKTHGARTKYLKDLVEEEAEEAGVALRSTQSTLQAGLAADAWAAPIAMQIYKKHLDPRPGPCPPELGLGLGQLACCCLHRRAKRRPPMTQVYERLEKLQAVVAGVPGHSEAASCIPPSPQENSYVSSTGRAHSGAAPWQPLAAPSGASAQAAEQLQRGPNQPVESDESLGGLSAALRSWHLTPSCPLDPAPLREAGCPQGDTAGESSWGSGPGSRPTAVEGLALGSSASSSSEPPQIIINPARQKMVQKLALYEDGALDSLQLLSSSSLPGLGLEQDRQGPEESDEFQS
Test readout: pIC50
Quick note: pIC50 values are minus log10 of concentrations in mol/L.

Lookup: // fetch IRAK1 (human) (UniProt P51617) pIC50 for "CN(C)C/C=C/C(=O)Nc1cccc(C(=O)Nc2ccc(Nc3nccc(-c4cccnc4)n3)cc2)c1"
Found: 7.85

---

Target: UniProt:Q9UBF8
Sequence (Q9UBF8 whole entry, looked up): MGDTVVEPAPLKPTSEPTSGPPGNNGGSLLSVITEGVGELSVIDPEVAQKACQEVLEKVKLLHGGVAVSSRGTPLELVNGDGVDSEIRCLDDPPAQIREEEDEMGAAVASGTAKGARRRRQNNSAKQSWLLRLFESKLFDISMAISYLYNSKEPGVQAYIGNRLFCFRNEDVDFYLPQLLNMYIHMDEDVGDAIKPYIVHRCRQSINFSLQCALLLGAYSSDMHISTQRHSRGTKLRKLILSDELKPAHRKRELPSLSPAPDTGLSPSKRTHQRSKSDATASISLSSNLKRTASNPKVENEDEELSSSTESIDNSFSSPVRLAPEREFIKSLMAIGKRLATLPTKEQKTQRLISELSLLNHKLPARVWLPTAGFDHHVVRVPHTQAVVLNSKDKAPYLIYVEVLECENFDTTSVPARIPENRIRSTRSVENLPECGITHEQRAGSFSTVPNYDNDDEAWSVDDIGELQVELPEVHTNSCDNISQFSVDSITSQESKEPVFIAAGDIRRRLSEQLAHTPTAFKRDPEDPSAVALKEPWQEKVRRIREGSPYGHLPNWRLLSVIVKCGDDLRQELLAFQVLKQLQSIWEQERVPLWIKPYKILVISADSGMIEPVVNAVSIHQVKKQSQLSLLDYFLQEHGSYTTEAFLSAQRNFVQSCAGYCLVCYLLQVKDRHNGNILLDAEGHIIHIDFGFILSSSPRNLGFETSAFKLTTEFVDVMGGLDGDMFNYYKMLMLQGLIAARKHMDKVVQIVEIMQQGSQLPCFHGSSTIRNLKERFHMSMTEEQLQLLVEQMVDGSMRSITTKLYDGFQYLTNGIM
Assay: KINOMEscan competition binding
Settings: compound 1.0 µM
Measured kinase still bound, per cent of control of individual entries
Answer with the figure and its unit, nothing else.

{"Sample smiles": "CN(C)C/C=C/C(=O)Nc1cccc(C(=O)Nc2ccc(Nc3nccc(-c4cccnc4)n3)cc2)c1", "kinase still bound, per cent of control": "71%"}

Lookup: Which kinase still bound, per cent of control is reported for this compound? "CN(C)C/C=C/C(=O)Nc1cccc(C(=O)Nc2ccc(Nc3nccc(-c4c(-c5ccccc5)nn5ccccc45)n3)cc2)c1"
Found: 69%

Lookup: Which kinase still bound, per cent of control is reported for this compound? "CN(C)C/C=C/C(=O)Nc1cccc(C(=O)Nc2ccc(Nc3nccc(/C(C#N)=C4\Nc5ccccc5S4)n3)cc2)c1"
Found: 65%

Lookup: Which kinase still bound, per cent of control is reported for this compound? "Cc1cc(NC(=O)c2cccc(NC(=O)/C=C/CN(C)C)c2)ccc1Nc1nccc(-c2cccnc2)n1"
Found: 82%

---

Molecular target: LCK (human) (UniProt P06239)
Sequence (P06239 whole entry, looked up): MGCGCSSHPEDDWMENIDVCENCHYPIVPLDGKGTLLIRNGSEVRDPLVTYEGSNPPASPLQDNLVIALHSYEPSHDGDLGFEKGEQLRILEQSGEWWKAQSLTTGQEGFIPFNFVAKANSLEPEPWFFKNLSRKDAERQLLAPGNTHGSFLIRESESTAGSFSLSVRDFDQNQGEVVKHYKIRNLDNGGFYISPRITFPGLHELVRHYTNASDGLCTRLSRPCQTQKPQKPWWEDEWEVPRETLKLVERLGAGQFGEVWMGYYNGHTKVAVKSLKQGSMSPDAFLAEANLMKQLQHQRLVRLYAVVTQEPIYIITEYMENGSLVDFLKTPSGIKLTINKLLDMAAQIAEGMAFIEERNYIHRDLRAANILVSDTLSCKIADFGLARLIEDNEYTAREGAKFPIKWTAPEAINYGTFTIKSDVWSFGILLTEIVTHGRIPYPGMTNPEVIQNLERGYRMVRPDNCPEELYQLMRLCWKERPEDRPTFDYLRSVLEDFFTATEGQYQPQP
Experiment: KINOMEscan competition binding
Conditions: compound 1.0 µM
Test readout: kinase still bound, per cent of control
Answer with the figure and its unit, nothing else.

Consider the reported kinase still bound, per cent of control for these compounds:
{"Sample smiles": "CN(C)C/C=C/C(=O)Nc1cccc(C(=O)Nc2ccc(Nc3nccc(-c4cccnc4)n3)cc2)c1", "kinase still bound, per cent of control": "100%"}
{"Sample smiles": "CN(C)C/C=C/C(=O)Nc1cccc(C(=O)Nc2ccc(Nc3nccc(-c4c(-c5ccccc5)nn5ccccc45)n3)cc2)c1", "kinase still bound, per cent of control": "8.6%"}
{"Sample smiles": "CN(C)C/C=C/C(=O)Nc1cccc(C(=O)Nc2ccc(Nc3nccc(/C(C#N)=C4\\Nc5ccccc5S4)n3)cc2)c1", "kinase still bound, per cent of control": "100%"}

Attention now shifts to the item below.
Lookup: Which kinase still bound, per cent of control is reported for this compound? "Cc1cc(NC(=O)c2cccc(NC(=O)/C=C/CN(C)C)c2)ccc1Nc1nccc(-c2cccnc2)n1"
Found: 100%

Cited source: the kinase profiling compilation of Christmann-Franck et al. (2016)
